// provenance: paper PMC6544596

Experiment: Pharmacokinetics of a single intraperitoneal dose in mice
Type: in vivo, C57BL/6J mice
Details: male, C57BL/6J, mouse, plasma, ip, 10 mg/kg
molecules and their reported AUC
Express it in µM·h; write the number only.

1. Cc1cn(-c2cc(NC(=O)c3ccc(C)c(Nc4nccc(-c5cccnc5)n4)c3)cc(C(F)(F)F)c2)cn1 [Nilotinib]	174

Lab note: next molecule to report on.
// query Which value of AUC has been reported for Cc1cn(-c2cc(NC(=O)c3ccc(C)c(Nc4nccc(-c5cnccn5)n4)c3)cc(C(F)(F)F)c2)cn1 [Radotinib] in the records?
// result 83.3

---

Experiment: Pharmacokinetics of a single intraperitoneal dose in mice
Assay type: in vivo, C57BL/6J mice
Conditions: male, C57BL/6J, mouse, brain/plasma, ip, 5 mg/kg
outcome measure: Kp
Could you respond with only the numeric value?

// query Which value of Kp has been reported for "COc1cc(Nc2c(C#N)cnc3cc(OCCCN4CCN(C)CC4)c(OC)cc23)c(Cl)cc1Cl" in the records?
// result 0.05

// query Which value of Kp has been reported for "Cc1ccc(NC(=O)c2ccc(CN3CC[C@H](N(C)C)C3)c(C(F)(F)F)c2)cc1Nc1nccc(-c2cncnc2)n1" in the records?
// result 0.12

---

Test: Pharmacokinetics of a single intraperitoneal dose in mice
Type: in vivo, C57BL/6J mice
Settings: read-out: C max Plasma; single IP dose 2.5 mg/kg, mice
outcome measure: Cmax (µM)
Express it in µM; write the number only.

// query Which value of Cmax has been reported for "Oc1cccc(Nc2ccnc3cc(-c4cccc(CN5CCOCC5)c4)sc23)c1" in the records?
// result 3.65

---

compounds and their reported Tmax
Test: Pharmacokinetics of a single intraperitoneal dose in mice
Assay type: in vivo, C57BL/6J mice
Details: male, C57BL/6J, mouse, brain and plasma, ip, 5 mg/kg
Express it in h; write the number only.

1) COc1cc(Nc2c(C#N)cnc3cc(OCCCN4CCN(C)CC4)c(OC)cc23)c(Cl)cc1Cl	1

// query Which value of Tmax has been reported for "Cc1ccc(NC(=O)c2ccc(CN3CC[C@H](N(C)C)C3)c(C(F)(F)F)c2)cc1Nc1nccc(-c2cncnc2)n1" in the records?
// result 1

---

molecules and their reported Cmax
Experiment: Pharmacokinetics of a single intraperitoneal dose in mice
Assay type: in vivo, C57BL/6J mice
Settings: male, C57BL/6J, mouse, plasma, ip, 5 mg/kg
Express it in µM; write the number only.

1) Cc1ccc(NC(=O)c2ccc(CN3CC[C@H](N(C)C)C3)c(C(F)(F)F)c2)cc1Nc1nccc(-c2cncnc2)n1	19.4

Lab note: next molecule to report on.
// query Which value of Cmax has been reported for "COc1cc(Nc2c(C#N)cnc3cc(OCCCN4CCN(C)CC4)c(OC)cc23)c(Cl)cc1Cl" in the records?
// result 19.4

---

Test: Pharmacokinetics of a single intraperitoneal dose in mice
Type: in vivo, C57BL/6J mice
Settings: male, C57BL/6J, mouse, brain and plasma, ip, 10 mg/kg
outcome measure: Tmax (h)
Express it in h; write the number only.

1. Cc1cn(-c2cc(NC(=O)c3ccc(C)c(Nc4nccc(-c5cccnc5)n4)c3)cc(C(F)(F)F)c2)cn1 [Nilotinib]	1

Lab note: next molecule to report on.
// query Which value of Tmax has been reported for Cc1cn(-c2cc(NC(=O)c3ccc(C)c(Nc4nccc(-c5cnccn5)n4)c3)cc(C(F)(F)F)c2)cn1 [Radotinib] in the records?
// result 1
